# Target Under Test: recombinant human TFPI (tissue factor pathway inhibitor) (human, UniProt P10646 29-304)
# Test Details: cell-based or functional assay
Entries and their % of Normalized, TF/FVIIa/FX complex assay, Ab 12.5 nM values follow.
Express your answer in %, writing the number without its unit.

Dear colleague, please send me the reported % of Normalized, TF/FVIIa/FX complex assay, Ab 12.5 nM for clone 1202 (antibody, V domains shown, scFv on yeast at selection; human IgG4/kappa IgG as purified; also called No. 1202 antibody) VH: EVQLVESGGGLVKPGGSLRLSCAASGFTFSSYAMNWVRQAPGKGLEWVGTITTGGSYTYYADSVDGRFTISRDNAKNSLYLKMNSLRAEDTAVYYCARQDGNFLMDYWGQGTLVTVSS VL: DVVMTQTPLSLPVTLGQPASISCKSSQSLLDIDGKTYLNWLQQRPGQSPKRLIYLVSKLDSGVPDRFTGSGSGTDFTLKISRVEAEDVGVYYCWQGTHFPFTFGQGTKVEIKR when you can.
10.7

Dear colleague, please send me the reported % of Normalized, TF/FVIIa/FX complex assay, Ab 12.5 nM for clone 13 (antibody, V domains shown) VH: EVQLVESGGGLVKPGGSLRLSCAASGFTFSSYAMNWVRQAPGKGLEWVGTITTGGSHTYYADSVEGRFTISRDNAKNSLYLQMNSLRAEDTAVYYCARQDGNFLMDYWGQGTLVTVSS VL: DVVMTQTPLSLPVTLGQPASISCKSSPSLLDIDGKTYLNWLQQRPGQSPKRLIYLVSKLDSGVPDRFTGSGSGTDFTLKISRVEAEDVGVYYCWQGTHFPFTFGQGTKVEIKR when you can.
11.9

Others:
Dear colleague, please send me the reported % of Normalized, TF/FVIIa/FX complex assay, Ab 12.5 nM for clone 1023 (antibody, V domains shown, scFv on yeast at selection; human IgG4/kappa IgG as purified) VH: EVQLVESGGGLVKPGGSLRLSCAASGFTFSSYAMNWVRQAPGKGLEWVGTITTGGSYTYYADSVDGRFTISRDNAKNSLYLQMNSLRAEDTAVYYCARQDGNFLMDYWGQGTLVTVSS VL: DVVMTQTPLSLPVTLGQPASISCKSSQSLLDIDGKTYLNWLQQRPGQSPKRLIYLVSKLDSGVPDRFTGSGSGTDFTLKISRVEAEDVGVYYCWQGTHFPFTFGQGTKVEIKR when you can.
10.3

Dear colleague, please send me the reported % of Normalized, TF/FVIIa/FX complex assay, Ab 12.5 nM for clone 12 (antibody, V domains shown, human IgG4/kappa IgG as purified; also called No. 12 antibody) VH: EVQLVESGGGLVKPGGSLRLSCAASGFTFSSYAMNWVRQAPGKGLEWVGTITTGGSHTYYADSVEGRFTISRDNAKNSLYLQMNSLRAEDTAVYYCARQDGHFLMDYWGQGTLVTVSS VL: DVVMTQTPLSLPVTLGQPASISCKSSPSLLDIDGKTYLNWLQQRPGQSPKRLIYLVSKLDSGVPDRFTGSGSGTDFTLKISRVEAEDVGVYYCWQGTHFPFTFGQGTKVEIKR when you can.
11.4
